Each recorded value in this set is attributed to PubChem BioAssay AID2060619.

Tested on: 323965-272-R-J2-PDC complex spheroid viability;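 also: spheroids exposed to agents for seven days before readout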
assay_comment: Anticancer human tumor 323965-272-R-J2-PDC patient-derived pancreatic carcinoma cell line growth inhibition [CLK]; active = viability on the fitted dose curve at most 10% of control; inactive = the rest
condition_context: second compound 1 µM; first compound 3.16 µM
Output constraint: value belongs to active, inactive

Asked: # fetch the recorded call for C=CC(=O)N1CCN(c2nc(=O)n(-c3c(C)ccnc3C(C)C)c3nc(-c4c(O)cccc4F)c(F)cc23)C(C)C1 (stereo not drawn) + CN1CCN(c2cc(C(=O)Nc3cc4cc(-c5cnn(C)c5)ccc4cn3)ccn2)CC1 here
Given back: active

Asked: Queued: COC1C=CCC(C)C(C)S(=O)(=O)NC(=O)c2ccc3c(c2)N(CC2CCC21)CC1(CCCc2cc(Cl)ccc21)CO3 (stereo not drawn) + CN1CCN(c2cc(C(=O)Nc3cc4cc(-c5cnn(C)c5)ccc4cn3)ccn2)CC1
Given back: active

Asked: Queued: Nc1ccccc1NC(=O)c1ccc(CNC(=O)OCc2cccnc2)cc1 + CNC(=O)c1ccc(Nc2nc(OC3CCCC3)c3c(-c4ccc5nc(C)oc5c4)c[nH]c3n2)c(OC)c1
Given back: inactive
